test system: Parabacteroides distasonis; assay: Antimicrobial activity against beta lactamase-positive Bacteroides distasonis isolated from intra-abdominal infection and pelvic inflammatory disease patients after 48 hrs by agar dilution method; assay type: functional
Mark 1 (yes) for MIC50 under 0.5 µg/mL, 0 (no) if at or over.

Structure notation: CO/N=C(\C(=O)N[C@@H]1C(=O)N2C(C(=O)O)=C(CSc3nc(=O)c(O)nn3C)CS[C@H]12)c1csc(N)n1
Class label: 0 (no)

Item CCC[C@@H]1C[C@@H](C(=O)N[C@@H]([C@H]2O[C@H](SC)[C@H](O)[C@@H](O)[C@H]2O)[C@H](C)Cl)N(C)C1 : MIC50 beneath 0.5 µg/mL, strictly?
0 (no)

Input Cc1ncc([N+](=O)[O-])n1CCO ; condition: MIC50 strictly below 0.5 µg/mL. Does it hold?
0 (no)

Consider the compound C[C@@H](O)[C@H]1C(=O)N2C(C(=O)O)=C(S[C@@H]3CN[C@H](C(=O)N(C)C)C3)[C@H](C)[C@H]12 . Is its MIC50 strictly less than 0.5 µg/mL?
1 (yes)

* * *

MIC overview
system: Anaerococcus prevotii; assay: Antimicrobial activity against Anaerococcus prevotii isolated from intra-abdominal infection and pelvic inflammatory disease patients after 48 hrs by agar dilution method; assay type: functional

Before answering, review these 3 worked examples.
Compound: C[C@@H](O)[C@H]1C(=O)N2C(C(=O)O)=C(S[C@@H]3CN[C@H](C(=O)Nc4cccc(C(=O)O)c4)C3)[C@H](C)[C@H]12
Tested target: Anaerococcus prevotii
MIC: ≤ 0.016 µg/mL
--
Compound: C[C@@H](O)[C@H]1C(=O)N2C(C(=O)O)=C(S[C@@H]3CN[C@H](C(=O)N(C)C)C3)[C@H](C)[C@H]12
Tested target: Anaerococcus prevotii
MIC: ≤ 0.016 µg/mL
--
Compound: CO/N=C(\C(=O)N[C@@H]1C(=O)N2C(C(=O)O)=C(CSc3nc(=O)c(O)nn3C)CS[C@H]12)c1csc(N)n1
Tested target: Anaerococcus prevotii
MIC: ≤ 0.125 µg/mL

Kindly consider the entry below.
Value wanted: MIC (Anaerococcus prevotii) of entry C[C@@H](O)[C@H]1C(=O)N2C(C(=O)O)=C(SCCNC=N)C[C@H]12 [IMIPENEM ANHYDROUS]
≤ 0.016 µg/mL

* * *

system: Phocaeicola vulgatus; experiment: Antimicrobial activity against beta lactamase-positive Bacteroides vulgatus isolated from intra-abdominal infection and pelvic inflammatory disease patients after 48 hrs by agar dilution method; format: functional
// reported MIC90 for each item listed

Guide cases for MIC90, answers given:
Compound: CCC[C@@H]1C[C@@H](C(=O)N[C@@H]([C@H]2O[C@H](SC)[C@H](O)[C@@H](O)[C@H]2O)[C@H](C)Cl)N(C)C1 [CLINDAMYCIN]
Measurement type: MIC90
Result: 0.5 µg/mL
--
Compound: C[C@@H](O)[C@H]1C(=O)N2C(C(=O)O)=C(S[C@@H]3CN[C@H](CNS(N)(=O)=O)C3)[C@H](C)[C@H]12 [DORIPENEM]
Measurement type: MIC90
Result: 1 µg/mL
--
Compound: C[C@@H](O)[C@H]1C(=O)N2C(C(=O)O)=C(S[C@@H]3CN[C@H](C(=O)N(C)C)C3)[C@H](C)[C@H]12 [MEROPENEM]
Measurement type: MIC90
Result: 1 µg/mL
--
Compound: C[C@@H](O)[C@H]1C(=O)N2C(C(=O)O)=C(SCCNC=N)C[C@H]12 [IMIPENEM ANHYDROUS]
Measurement type: MIC90
Result: 1 µg/mL

Please look at the following compound next.
Return reported MIC90; argument: CO/N=C(\C(=O)N[C@@H]1C(=O)N2C(C(=O)O)=C(CSc3nc(=O)c(O)nn3C)CS[C@H]12)c1csc(N)n1 [CEFTRIAXONE]
> 128 µg/mL
